Test system: LOX IMVI melanoma
Assay: NCI tumour cell line growth inhibition, 48 h
Exercise: state measured TGI for each of the compounds provided.
One number for each entry, in µM.

The examples below pair each entry with its known result.
compound	TGI / µM
COC1(CC[C@@H](C)COC2OC(CO)C(O)C(O)C2O)O[C@H]2C[C@H]3[C@@H]4CC=C5C[C@@H](OC6OC(CO)C(O)C(OC7OC(CO)C(O)C(O)C7O)C6OC6OC(C)C(O)C(O)C6O)CC[C@]5(C)[C@H]4CC[C@]3(C)[C@H]2[C@@H]1C (stereo partly drawn)	7.03
O=C1CSC(c2ccc(Cl)cc2Cl)N1c1ccc(Oc2ccc(Cl)cc2)c(Cl)c1 (stereo not drawn)	36.6
C=C1C(=O)OC2CC(C)C3C4OC4C(O)C3(C)C(O)C12 (stereo not drawn)	65.3
CC(=O)Nc1n[n+]([O-])c2cc(C)ccc2[n+]1[O-]	11.5
Cc1ccc2nc(-c3ccc(C(C)(C)C)cc3)oc(=O)c2c1	32.3
O=C(O)[C@H](CCC[C@H]1C(=O)O[C@H](c2ccccc2)[C@H](c2ccccc2)N1C(=O)OCc1ccccc1)N[C@@H](c1ccccc1)[C@H](O)c1ccccc1	51.9
CC(=O)c1ccc(NC(=O)COC(=O)c2cccc3c(=O)c4ccccc4[nH]c23)cc1	51.5

Attention now turns to another entry.
Task: Entry under review: Cc1cc(O)c(C2=NN(c3ccc(S(N)(=O)=O)cc3)C(/C=C/c3ccccc3)C2)cc1Cl (stereo not drawn) . Reported TGI?
Output: 16.2
